// provenance: patent US20070254831A1

// reported log10 Kd per item
- testSystem: T1, soluble human FcRn (human, UniProt P55899 24-297; P61769 21-119, biotinylated (Sulfo-NHS-LC-Biotin) in the ELISA; amine-coupled to CM5 chip in SPR)
- T1 construct: also called shFcRn; biotinylated shFcRn
- T1 sequence (P55899 24-297 limits assumed, chain 1 of 2): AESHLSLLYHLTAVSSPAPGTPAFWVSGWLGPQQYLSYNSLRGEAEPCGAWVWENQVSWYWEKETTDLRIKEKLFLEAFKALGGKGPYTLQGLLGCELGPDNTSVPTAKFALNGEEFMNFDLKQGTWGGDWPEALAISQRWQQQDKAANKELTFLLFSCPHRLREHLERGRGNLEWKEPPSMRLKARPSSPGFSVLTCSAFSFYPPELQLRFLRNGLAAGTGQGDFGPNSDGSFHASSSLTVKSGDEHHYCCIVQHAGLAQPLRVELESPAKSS
- T1 sequence (P61769 21-119 limits assumed, chain 2 of 2): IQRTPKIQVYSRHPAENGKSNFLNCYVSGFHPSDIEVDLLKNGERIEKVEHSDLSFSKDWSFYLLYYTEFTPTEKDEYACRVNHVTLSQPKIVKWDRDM
- assayExplanation: SPR, pH 6
Bridge positions count the residues as written; N and C are the ends. Square brackets hold non-standard residues; d marks the D form. Ends that are not written are not given here. Pen = CC(C)(S)[C@H](N)C(=O)O
reportedEndpoint: log10 Kd (log10 of the value in nM)

| binder | log10 Kd |
| --- | --- |
| QRFXTGHFGYLYPCNGP (Pen at 4; D-Tyr at 10; disulfide; C-terminal amide) [Peptide No. 45] | 3.18 |
| QRFXTGHFGGLYPCNGP (Pen (L-penicillamine) at 4; disulfide; C-terminal amide) [Peptide No. 32] | 2.40 |
| QRFXTGHFFPLYPCNGP (Pen at 4; D-Phe at 9 (L-Pro at 10); disulfide; C-terminal amide) [Peptide No. 203] | 3.58 |
| QRF[Pen]TGHF[dF]GPYPCNGP-NH2 (disulfide 4-14; N-terminus assumed; SMILES C[C@@H](O)[C@@H]1NC(=O)[C@@H](NC(=O)[C@H](Cc2ccccc2)NC(=O)[C@H](CCCNC(=N)N)NC(=O)[C@@H](N)CCC(N)=O)C(C)(C)SSC[C@@H](C(=O)N[C@@H](CC(N)=O)C(=O)NCC(=O)N2CCC[C@H]2C(N)=O)NC(=O)[C@@H]2CCCN2C(=O)[C@H](Cc2ccc(O)cc2)NC(=O)[C@@H]2CCCN2C(=O)CNC(=O)[C@@H](Cc2ccccc2)NC(=O)[C@H](Cc2ccccc2)NC(=O)[C@H](Cc2c[nH]cn2)NC(=O)CNC1=O) [Peptide No. 155] | 4.26 |
| QRFXTGHFGALYPCNGP (Pen at 4; D-Ala at 10; disulfide; C-terminal amide) [Peptide No. 74] | 2.68 |
| QRFXTGHFXGLYPCNGP (Pen at 4; Aib at 9; disulfide; C-terminal amide) [Peptide No. 54] | 3.72 |
| QRFXTGHFAGLYPCNGP (Pen at 4; D-Ala at 9; disulfide; C-terminal amide) [Peptide No. 75] | 2.69 |
| QRFXTGHFAGLYPCNGP (Pen at 4; D-Ala at 9; Sar at 10; disulfide; C-terminal amide) [Peptide No. 189] | 2.28 |
| QRF[Pen]TGHFG[dR]LYPCNGP-NH2 (disulfide 4-14; N-terminus assumed; SMILES CC(C)C[C@@H]1NC(=O)[C@@H](CCCNC(=N)N)NC(=O)CNC(=O)[C@H](Cc2ccccc2)NC(=O)[C@H](Cc2c[nH]cn2)NC(=O)CNC(=O)[C@H]([C@@H](C)O)NC(=O)[C@@H](NC(=O)[C@H](Cc2ccccc2)NC(=O)[C@H](CCCNC(=N)N)NC(=O)[C@@H](N)CCC(N)=O)C(C)(C)SSC[C@@H](C(=O)N[C@@H](CC(N)=O)C(=O)NCC(=O)N2CCC[C@H]2C(N)=O)NC(=O)[C@@H]2CCCN2C(=O)[C@H](Cc2ccc(O)cc2)NC1=O) [Peptide No. 41] | 2.92 |
| QRFXTGHFFGLYPCNGP (Pen at 4; D-Phe at 9; disulfide; C-terminal amide) [Peptide No. 52] | 2.71 |
| QRFXTGHFDGLYPCNGP (Pen at 4; D-Asp at 9; disulfide; C-terminal amide) [Peptide No. 47] | 2.76 |
| QRFXTGHFGXLYPCNGP (Pen at 4; Aib (aminoisobutyric acid) at 10; disulfide; C-terminal amide) [Peptide No. 46] | 2.68 |
| QRFXTGHFGFLYPCNGP (Pen at 4; D-Phe at 10; disulfide; C-terminal amide) [Peptide No. 44] | 3.23 |
